Assay: Cytotoxicity MTT assay, 24 h, MDR cells
Format: cell-based
Conditions: mouse; MDR cells, 24 h, MTT; read-out: Cytotoxic effect IC50
reportedMetric: IC50 at 24 h

Sample answers from the record:
| structure | IC50 at 24 h |
| --- | --- |
| Cl.NC1=N/C(=C\c2ccc3c(c2)Cc2ccccc2-3)C(=O)N1CCCN1CCOCC1 | 27.8 µM |
| NC1=N/C(=C\c2ccc(-c3ccccc3)cc2)C(=O)N1CCN1CCOCC1 | 57.4 µM |
| Cl.O=C1N=C(N2CCC(N3CCOCC3)CC2)N/C1=C\c1ccc(-c2ccccc2)cc1 | 46.4 µM |

query: IC50 at 24 h lookup needed for Cl.O=C1N=C(N2CCC(N3CCOCC3)CC2)N/C1=C\c1ccc(Oc2ccccc2)cc1 , thanks.
result: 45.5 µM

query: Need IC50 at 24 h, item Cl.NC1=N/C(=C\c2ccc(Oc3ccccc3)cc2)C(=O)N1CCCN1CCOCC1
result: 23.4 µM

query: IC50 at 24 h for Cl.O=C1N=C(N2CCN(CCN3CCOCC3)CC2)N/C1=C\c1ccc(-c2ccccc2)cc1 ?
result: 18.1 µM

query: // returns reported IC50 at 24 h for input Cl.O=C1N=C(N2CCC(N3CCOCC3)CC2)N/C1=C\c1c2ccccc2cc2ccccc12
result: > 100 µM

query: Any idea what its IC50 at 24 h is? The molecule is NC1=N/C(=C\c2cccc(Oc3ccccc3)c2)C(=O)N1CCCN1CCOCC1
result: 31.3 µM

---

Molecular target: ABCB1 efflux pump (Homo sapiens, UniProt P08183)
Sequence (P08183 whole entry): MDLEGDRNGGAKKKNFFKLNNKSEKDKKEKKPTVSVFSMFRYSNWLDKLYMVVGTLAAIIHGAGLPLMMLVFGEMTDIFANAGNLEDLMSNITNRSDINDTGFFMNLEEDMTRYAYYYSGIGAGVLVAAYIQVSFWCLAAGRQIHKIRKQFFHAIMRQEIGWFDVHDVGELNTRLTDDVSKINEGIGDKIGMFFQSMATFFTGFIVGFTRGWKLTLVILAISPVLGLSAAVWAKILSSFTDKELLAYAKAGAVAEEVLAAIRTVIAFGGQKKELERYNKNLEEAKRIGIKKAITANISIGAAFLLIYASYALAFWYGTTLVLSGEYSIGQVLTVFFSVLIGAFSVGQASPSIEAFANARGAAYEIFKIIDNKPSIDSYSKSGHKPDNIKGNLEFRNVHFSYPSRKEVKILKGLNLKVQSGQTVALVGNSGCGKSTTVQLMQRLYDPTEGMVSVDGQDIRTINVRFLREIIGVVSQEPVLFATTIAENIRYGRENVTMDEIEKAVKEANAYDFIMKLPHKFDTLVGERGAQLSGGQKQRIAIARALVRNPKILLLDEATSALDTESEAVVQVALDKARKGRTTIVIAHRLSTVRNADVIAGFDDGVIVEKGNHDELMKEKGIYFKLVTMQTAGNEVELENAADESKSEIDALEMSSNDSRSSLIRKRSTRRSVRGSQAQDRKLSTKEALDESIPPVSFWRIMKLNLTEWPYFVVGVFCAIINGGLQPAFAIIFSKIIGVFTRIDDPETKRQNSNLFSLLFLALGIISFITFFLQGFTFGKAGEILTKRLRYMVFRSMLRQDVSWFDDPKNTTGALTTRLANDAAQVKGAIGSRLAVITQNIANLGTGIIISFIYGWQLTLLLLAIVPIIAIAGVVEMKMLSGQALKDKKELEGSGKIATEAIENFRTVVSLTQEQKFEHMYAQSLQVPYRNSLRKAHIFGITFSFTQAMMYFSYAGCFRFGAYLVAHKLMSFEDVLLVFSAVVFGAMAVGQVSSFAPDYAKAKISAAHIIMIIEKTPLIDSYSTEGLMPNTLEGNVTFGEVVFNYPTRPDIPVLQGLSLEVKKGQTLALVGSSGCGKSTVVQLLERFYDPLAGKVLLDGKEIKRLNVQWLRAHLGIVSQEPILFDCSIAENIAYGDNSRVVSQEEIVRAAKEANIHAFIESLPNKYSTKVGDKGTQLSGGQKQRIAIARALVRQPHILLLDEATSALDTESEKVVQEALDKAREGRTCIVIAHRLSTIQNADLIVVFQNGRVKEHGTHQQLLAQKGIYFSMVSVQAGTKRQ
Assay: Rhodamine 123 accumulation assay (flow cytometry)
Details: concentration 2 µM; rhodamine 123 accumulation, MDR vs PAR mouse T-lymphoma cells
reportedMetric: FAR (fluorescence activity ratio)
Please reply with the value in numeric form only.

Worked examples follow.
| compound | FAR (fluorescence activity ratio) |
| --- | --- |
| Cl.O=C1NC(N2CCOCC2)=N/C1=C\c1ccc(-c2ccccc2)cc1 [Compound 7] | 0.955 |
| Cl.NC1=N/C(=C\c2cc3ccccc3c3ccccc23)C(=O)N1CCCN1CCOCC1 [Compound 20] | 0.896 |
| Cl.O=C1N=C(N2CCN(CCN3CCOCC3)CC2)N/C1=C\c1ccc(-c2ccccc2)cc1 [Compound 9] | 0.766 |

query: Any idea what its FAR (fluorescence activity ratio) is? The compound is Cl.O=C1N=C(N2CCC(N3CCOCC3)CC2)N/C1=C\c1cccc(Oc2ccccc2)c1 [Compound 10]
result: 1.108

query: Given Cl.NC1=N/C(=C\c2ccc(Oc3ccccc3)cc2)C(=O)N1CCCN1CCOCC1 [Compound 17] , state its recorded FAR (fluorescence activity ratio).
result: 0.929

query: Looking for the measured FAR (fluorescence activity ratio) of Cl.NC1=N/C(=C\c2ccc(-c3ccccc3)cc2)C(=O)N1CCCN1CCOCC1 [Compound 15] , can you help?
result: 0.887

query: Return reported FAR (fluorescence activity ratio); argument: Cl.O=C1N=C(N2CCC(N3CCOCC3)CC2)N/C1=C\c1ccc2c(c1)Cc1ccccc1-2 [Compound 12]
result: 1.161

query: Looking for the measured FAR (fluorescence activity ratio) of NC1=N/C(=C\c2cccc(Oc3ccccc3)c2)C(=O)N1CCCN1CCOCC1 [Compound 16] , can you help?
result: 0.927

query: I would be grateful if you could share the reported FAR (fluorescence activity ratio) for NC1=N/C(=C\c2c3ccccc3cc3ccccc23)C(=O)N1CCCN1CCOCC1 [Compound 19] .
result: 1.272

query: Would you kindly share the measured FAR (fluorescence activity ratio) for Cl.O=C1N=C(N2CCC(N3CCOCC3)CC2)N/C1=C\c1ccc(Oc2ccccc2)cc1 [Compound 11] ?
result: 1.203

query: # get_value(readout='FAR (fluorescence activity ratio)', item= Cl.O=C1N=C(N2CCC(N3CCOCC3)CC2)N/C1=C\c1c2ccccc2cc2ccccc12 [Compound 13] )
result: 0.968

query: Fill in: FAR (fluorescence activity ratio) of Cl.O=C1N=C(N2CCC(N3CCOCC3)CC2)N/C1=C\c1ccc(-c2ccccc2)cc1 [Compound 8] is ___
result: 1.359

query: Which FAR (fluorescence activity ratio) value is on record for NC1=N/C(=C\c2ccc(-c3ccccc3)cc2)C(=O)N1CCN1CCOCC1 [Compound 14] ?
result: 0.814

query: Item under review: Cl.NC1=N/C(=C\c2ccc3c(c2)Cc2ccccc2-3)C(=O)N1CCCN1CCOCC1 [Compound 18] . Reported FAR (fluorescence activity ratio)?
result: 1.038
